Measured values drawn from patent US5883107A for this set.

SUBJECT_OF_TEST: trypsin (Bos taurus, UniProt P00760)
Construct: bovine pancreatic trypsin; purchased Worthington Biochemical Corp. TRL3; host or cells: bovine pancreas
Sequence (P00760 24-246): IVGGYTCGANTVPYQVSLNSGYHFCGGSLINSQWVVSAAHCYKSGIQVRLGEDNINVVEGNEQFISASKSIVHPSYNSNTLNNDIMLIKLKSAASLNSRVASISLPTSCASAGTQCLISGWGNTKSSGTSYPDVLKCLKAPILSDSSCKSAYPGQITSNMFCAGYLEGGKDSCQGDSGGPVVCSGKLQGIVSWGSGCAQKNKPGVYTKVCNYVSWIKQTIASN
MEASUREMENT_NOTES: In vitro enzyme assay for specificity: trypsin
Type: biochemical, bovine
CONDITION_SUMMARY: first of the two values in the cell (two isomeric pair), or the only value; 0.5 nM enzyme, 30 minute incubation; read-out: IC50 for inhibition of trypsin
TEST_READOUT: IC50
The answer should read as a number with its unit following.

Before answering, review these 2 worked examples.
CCCC(CCC)C(=O)N[C@@H](CC(=O)OC)C(=O)N1CCC[C@H]1C(=O)N[C@@H](C=O)CC1CCCN(C(=N)N)C1 (single isomer, unassigned) [Isomer 11B(D)] :: 2590 nM
CCCC(CCC)C(=O)N[C@@H](CC(=O)OC)C(=O)N1CCC[C@H]1C(=O)N[C@H](C=O)CC1CCCN(C(=N)N)C1 (single isomer, unassigned) [Isomer 11B] :: 67 nM

With those in mind, consider the next compound.
compound CCCC(CCC)C(=O)N[C@@H](Cc1nnn[nH]1)C(=O)N1CCC[C@H]1C(=O)N[C@H](C=O)CC1CCCN(C(=N)N)C1 (single isomer, unassigned) [Isomer 19B] , IC50 observed: 150 nM
